Value source: patent US20230270730A1

- EXPERIMENT DESCRIPTION: Human liver microsome stability
- Type: in vitro ADME
- EXPERIMENTAL CONTEXT: pH 7.4; human liver microsomes, NADPH, 37° C.
READOUT NAME: microsomal CLint at 0.99 µM (µL/min/mg)

> print(dat)
                                   molecule                 readout.name  units.label  numeric.result
1  NC(=O)c1cc(Cc2ccnc(NS(=O)(=O)NC3C4COCC43)c2F)c(F)c(F)c1Nc1ccc(I)cc1F (stereo not shown)  microsomal CLint at 0.99 µM    µL/min/mg              47

###

The following compounds are listed with their measured pIC50 values.
- System: A549 human lung cancer cells
- EXPERIMENT DESCRIPTION: Cell proliferation-inhibiting activity, A549 (CellTiter-Glo)
- Format: cell-based
- EXPERIMENTAL CONTEXT: A549, 96 h
pIC50: −log10 of the molar value.
READOUT NAME: pIC50

> print(dat)
                                   molecule  numeric.result
1  CC1(NS(=O)(=O)Nc2nccc(Cc3cc(C(N)=O)c(Nc4ccc(I)cc4F)c(F)c3F)c2F)CCC1            8.70
2  NC(=O)c1cc(Cc2ccnc(NS(=O)(=O)NCC3COC3)c2F)c(F)c(F)c1Nc1ccc(I)cc1F            8.52

###

- TARGET OR SYSTEM: BRAF (Homo sapiens, UniProt P15056)
- Sequence (P15056 whole entry): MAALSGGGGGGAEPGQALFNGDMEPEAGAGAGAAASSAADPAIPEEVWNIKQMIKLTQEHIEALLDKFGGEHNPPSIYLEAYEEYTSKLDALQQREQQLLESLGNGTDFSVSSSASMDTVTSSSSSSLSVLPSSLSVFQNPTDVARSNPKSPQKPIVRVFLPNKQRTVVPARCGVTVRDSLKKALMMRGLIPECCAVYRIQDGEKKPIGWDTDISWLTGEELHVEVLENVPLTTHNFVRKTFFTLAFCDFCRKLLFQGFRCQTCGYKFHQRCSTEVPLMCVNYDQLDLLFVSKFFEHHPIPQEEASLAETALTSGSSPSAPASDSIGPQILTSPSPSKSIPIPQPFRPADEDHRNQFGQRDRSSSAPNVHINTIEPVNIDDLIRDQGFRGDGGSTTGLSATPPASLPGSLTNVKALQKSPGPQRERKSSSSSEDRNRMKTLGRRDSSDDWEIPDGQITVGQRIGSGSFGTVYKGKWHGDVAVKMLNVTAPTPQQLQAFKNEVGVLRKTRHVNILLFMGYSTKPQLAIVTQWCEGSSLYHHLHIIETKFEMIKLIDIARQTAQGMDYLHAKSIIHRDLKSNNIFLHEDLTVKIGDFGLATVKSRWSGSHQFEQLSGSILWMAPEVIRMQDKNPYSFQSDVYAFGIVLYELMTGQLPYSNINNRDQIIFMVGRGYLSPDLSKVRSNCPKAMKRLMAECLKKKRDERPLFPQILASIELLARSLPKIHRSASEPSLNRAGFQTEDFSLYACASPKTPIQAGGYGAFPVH
- Sequence (Q02750 whole entry partner): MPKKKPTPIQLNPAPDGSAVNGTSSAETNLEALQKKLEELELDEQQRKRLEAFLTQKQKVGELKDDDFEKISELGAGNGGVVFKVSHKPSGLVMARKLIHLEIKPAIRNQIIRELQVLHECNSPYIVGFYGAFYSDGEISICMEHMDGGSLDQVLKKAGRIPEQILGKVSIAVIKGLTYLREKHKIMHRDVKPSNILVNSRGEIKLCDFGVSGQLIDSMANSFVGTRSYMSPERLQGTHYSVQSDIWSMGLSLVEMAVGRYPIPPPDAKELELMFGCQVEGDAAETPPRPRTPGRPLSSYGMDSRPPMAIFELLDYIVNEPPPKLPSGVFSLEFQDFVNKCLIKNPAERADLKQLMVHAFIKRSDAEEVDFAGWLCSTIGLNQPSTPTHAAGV
READOUT NAME: IC50 (nM)

> print(dat)
                                   molecule  numeric.result
1  NC(=O)c1cc(Cc2ccnc(NS(=O)(=O)NC3CCOCC3)c2F)c(F)c(F)c1Nc1ccc(I)cc1F               1
